Record form. Attribute: growth inhibition. Fill in for each entry.
measurement_notes: NCI Yeast Anticancer Drug Screen. Data for the wt2 strain (AID 169);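 further: 0% = growth of vehicle-treated yeast cultures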
condition_details: S. cerevisiae wt2 strain growth inhibition; at 1.2 µM; active compounds read high
Compounds without any hit were thinned out: in the full panel of roughly 79,000, 15% have a hit.
# number only, unit % dropped from output

IN: Recorded growth inhibition of NNC(=O)CCc1ccc2ccc3ccccc3c2c1 , please.
OUT: -1

IN: Would you mind doing COc1ccc(OC)c2cc3ccccc3cc12 as well?
OUT: -23

IN: Again, but for S=C(Nc1ccc(Cl)cc1)SC1CCCCC1
OUT: -35

IN: Would you kindly repeat that for CSC(=S)N/N=C(\C)c1cccc(C)n1 ?
OUT: -6

IN: Try this compound next: COc1ccc(C2c3cc4c(cc3OC(C)(O)C2C)OCO4)c(OC)c1 (stereo not drawn)
OUT: -2

IN: Do the same for O=[N+]([O-])c1ccc(=S)[nH]c1 please
OUT: 0

IN: Then this compound: CC1=C(C)Cc2c(O)ccc(O)c2C1
OUT: -12

IN: # iterate: COc1cc(/C=C2\CCc3ccccc3C2=O)cc(OC)c1OC
OUT: 2

IN: # iterate: S=C(N/N=C(/c1ccccc1)c1ccccn1)N1CCCCCC1
OUT: 5

IN: Do the same for O=[N+]([O-])c1ccc([N+]2=NC(c3ccccc3)=NN(c3ccccc3)C2)cc1 please
OUT: 0

IN: Also c1ccc2c(c1)Oc1cccc3cccc-2c13 , if possible.
OUT: 2

IN: Continue with OC(COc1cccc2ccccc12)CN1CCOCC1 (stereo not drawn)
OUT: 17

IN: Follow-up entry: O=C(O)c1ccccc1-c1ccccc1C(=O)Nc1ccc2c(c1)Cc1ccccc1-2
OUT: 3

IN: Repeat for the following compound: COc1cc(C2C3=C(COC3=O)Oc3cc4c(cc32)OCO4)ccc1O (stereo not drawn)
OUT: -2

IN: Another compound: O=C1Nc2ccc(Cl)c(I)c2C1=O
OUT: -1

IN: Please answer likewise for Oc1ccc(NCn2c(=S)sc3ccccc32)cc1
OUT: -28

IN: Here is the next compound: O=C1C=CC(=O)c2c(O)c(Nc3ccc(OC(F)(F)F)cc3)c(Cl)c(O)c21
OUT: -5

IN: // same read-out, input: CNC(=O)OCc1c(COC(=O)NC)c(-c2ccc(-c3ccccc3)cc2)n(C)c1C
OUT: -30

IN: Same thing, different compound: CC(=O)Oc1cc(-c2cc(OC(C)=O)c(OC(C)=O)c3ccccc23)c2ccccc2c1OC(C)=O
OUT: 10

IN: Moving on to the next compound: C[CH2][Sn]([CH2]C)([O]C(=O)C(OC(C)=O)c1ccccc1)[O]C(=O)C(OC(C)=O)c1ccccc1 (stereo not drawn)
OUT: -1

IN: Please give the result for O=[N+]([O-])c1cccc([N+](=O)[O-])c1S(=O)(=O)c1ccccc1 too.
OUT: 1

IN: Input BrCC[P+](c1ccccc1)(c1ccccc1)c1ccccc1
OUT: -15

IN: Ok, now COc1cc2c3c(cccc3c1)C(=O)N(CCN(C)C)C2=O
OUT: -2

IN: Do the same for CC(=O)OC1CCC2(C)C(=CCC3C4CCC5(OC6CC(C)CN(C(C)=O)C6C5C)C(C)=C4C(=O)C32)C1 (stereo not drawn) please
OUT: -9

IN: What about this compound? CCN(CC)CC(O)c1ccc2ccc3ccccc3c2c1 (stereo not drawn)
OUT: 2

IN: // same read-out, input: Cc1ccc(S(=O)(=O)NNC(=S)Nc2cccc3ccccc23)cc1
OUT: -2

IN: Same question, COC(=O)C1=C(C)NC(C)=C(C(=O)OCCCN2CCC(c3ccccc3)(c3ccccc3)CC2)C1c1cccc([N+](=O)[O-])c1 (stereo not drawn) this time
OUT: -4

IN: Now consider O=[N+]([O-])c1ccc2c(c1)C(N1CCN(CCO)CC1)Cc1ccc(F)cc1S2 (stereo not drawn) and answer again.
OUT: -2

IN: Entry to check: O=C(Nc1ccccc1)OCCc1ccc(Cl)c(Cl)c1
OUT: -7

IN: Record: O=C(c1cc(Br)ccc1O)c1cc(Br)ccc1O
OUT: 12

IN: Thanks! And S=C(N/N=C/c1ccccn1)Nc1ccc(Cl)cc1 ?
OUT: -6

IN: Next compound up: CCOC(=O)C1=C(C(=O)c2ccccc2)C(c2ccccc2[N+](=O)[O-])C(C(=O)c2ccccc2)=C(C(=O)OCC)N1
OUT: -2

IN: Could you do the same for CCCCCCCCCCC(=O)Cl , please?
OUT: 5

IN: Same thing, different compound: COC(=O)C1=C(C(=O)OC)C2(C)C=CC1O2 (stereo not drawn)
OUT: -4

IN: And N#Cc1ccc(C2NN=CC23C(=O)c2ccccc2OC3c2ccccc2)cc1 (stereo not drawn) ?
OUT: 0

IN: Okay, and OCC1OC(OCC(O)C(O)C(O)C(/C=N/Nc2ccccc2)=N/Nc2ccccc2)C(O)C(O)C1O (stereo not drawn) ?
OUT: 1

IN: Then this compound: COC(=O)CSSCc1ccc([N+](=O)[O-])cc1
OUT: 1

IN: Likewise for Clc1cccc(C(Nc2nncs2)Nc2nncs2)c1Cl ?
OUT: -2

IN: Also check CCOc1ccc2c(c1)c(CC(=O)O)cn2C
OUT: -3

IN: # repeat for CC(C)(C)c1nc2c(o1)C(=O)c1ccccc1C2=O
OUT: -41

IN: Same lookup for CN(C)Cc1cc(N=Nc2ccc(Cl)cc2)cc(CN(C)C)c1O , please.
OUT: 5

IN: Next up: CC(C)OC(=O)Oc1ccccc1OC(=O)OC(C)C
OUT: -3

IN: Also CCC/C(Cl)=N\OC(=O)Nc1ccc(Br)cc1 ?
OUT: 25
